Tested on: 616215-338-R-J1-PDC complex spheroid viability
PROTOCOL DESCRIPTION: Anticancer human tumor 616215-338-R-J1-PDC patient-derived colon adenocarcinoma cell line growth inhibition [RAS]
PARTICULARS: second compound 3.16 µM; first compound 0.0316 µM; hits give low values
Source text: RAS pathway inhibitors in Combinations in Complex Spheroids A high-throughput screen of multi-cell type tumor spheroids was designed to identify active combinations of RAS pathway inhibitors and targeted small molecules. Complex spheroids include a stromal component modeled by human endothelial cells (HUVEC) and fibroblasts modeled by human mesenchymal stem cells (MSCs). […] Compounds. […] If the clinical Cmax for an agent had not been determined, the highest concentration tested was 10 microM. […]
Returns the class for an entry based on its viability, T/C. Class ranges: 0: < 40%; 1: ≥ 40% and < 90%; 2: ≥ 90%

MOLECULE	CAT
C[C@@H](NC(=O)c1ncnc(N)c1Cl)c1ncc(C(=O)Nc2cc(C(F)(F)F)c(Cl)cn2)s1 + C#Cc1c(F)ccc2cc(O)cc(-c3ncc4c(N5CC6CCC(C5)N6)nc(OCC56CCCN5CC(F)C6)nc4c3F)c12	2
CC(C)n1nc(-c2ccc3oc(N)nc3c2)c2c(N)ncnc21 + C#Cc1c(F)ccc2cc(O)cc(-c3ncc4c(N5CC6CCC(C5)N6)nc(OCC56CCCN5CC(F)C6)nc4c3F)c12	1
Nc1ccn(C2OC(CO)C(O)C2(F)F)c(=O)n1 (centres undefined) + C#Cc1c(F)ccc2cc(O)cc(-c3ncc4c(N5CC6CCC(C5)N6)nc(OCC56CCCN5CC(F)C6)nc4c3F)c12	0
O=C(c1ccc(F)c(F)c1Nc1ccc(I)cc1F)N1CC(O)([C@@H]2CCCCN2)C1 + C#Cc1c(F)ccc2cc(O)cc(-c3ncc4c(N5CC6CCC(C5)N6)nc(OCC56CCCN5CC(F)C6)nc4c3F)c12	0
C=CC(=O)N1CCN(c2nc(OCC3CCCN3C)nc3c(F)c(-c4nc(N)cc(C)c4C(F)(F)F)c(Cl)cc23)C(C)C1 (centres undefined) + C#Cc1c(F)ccc2cc(O)cc(-c3ncc4c(N5CC6CCC(C5)N6)nc(OCC56CCCN5CC(F)C6)nc4c3F)c12	2
CC(Nc1ccc2c(c1)OCCn1cc(N3C(=O)OCC3C(F)F)nc1-2)C(N)=O (centres undefined) + C#Cc1c(F)ccc2cc(O)cc(-c3ncc4c(N5CC6CCC(C5)N6)nc(OCC56CCCN5CC(F)C6)nc4c3F)c12	1
CC(=O)OC12COC1CC(O)C1(C)C(=O)C(O)C3=C(C)C(OC(=O)C(O)C(NC(=O)OC(C)(C)C)c4ccccc4)CC(O)(C(OC(=O)c4ccccc4)C21)C3(C)C (centres undefined) + C#Cc1c(F)ccc2cc(O)cc(-c3ncc4c(N5CC6CCC(C5)N6)nc(OCC56CCCN5CC(F)C6)nc4c3F)c12	0

----------
Tested on: 616215-338-R-J1-PDC complex spheroid viability
PROTOCOL DESCRIPTION: Anticancer human tumor 616215-338-R-J1-PDC cell line growth inhibition [RAS];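 further: spheroids exposed to agents for seven days before viability readout; 100% = DMSO vehicle control viability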
PARTICULARS: second compound 0.003 µM; first compound 1 µM; hits give low values
Lab note: cut-off is 20%. Strictly less in viability, T/C is Condition met. Exactly 20% or more is Condition not met.

MOLECULE	SYSTEM NAME	CAT
Nc1ccn(C2OC(CO)C(O)C2(F)F)c(=O)n1 (stereo not drawn) + CCn1c(-c2cc(N3CCN(C)CC3)cnc2C(C)OC)c2c3cc(ccc31)-c1csc(n1)CC(NC(=O)C1CC1C)C(=O)N1CCCC(N1)C(=O)OCC(C)(C)C2	616215-338-R-J1-PDC complex spheroid viability	Condition met
C[C@@H](NC(=O)c1ncnc(N)c1Cl)c1ncc(C(=O)Nc2cc(C(F)(F)F)c(Cl)cn2)s1 + CCn1c(-c2cc(N3CCN(C)CC3)cnc2C(C)OC)c2c3cc(ccc31)-c1csc(n1)CC(NC(=O)C1CC1C)C(=O)N1CCCC(N1)C(=O)OCC(C)(C)C2	616215-338-R-J1-PDC complex spheroid viability	Condition not met
CC(=O)OC12COC1CC(O)C1(C)C(=O)C(O)C3=C(C)C(OC(=O)C(O)C(NC(=O)OC(C)(C)C)c4ccccc4)CC(O)(C(OC(=O)c4ccccc4)C21)C3(C)C (stereo not drawn) + CCn1c(-c2cc(N3CCN(C)CC3)cnc2C(C)OC)c2c3cc(ccc31)-c1csc(n1)CC(NC(=O)C1CC1C)C(=O)N1CCCC(N1)C(=O)OCC(C)(C)C2	616215-338-R-J1-PDC complex spheroid viability	Condition met
O=C(c1ccc(F)c(F)c1Nc1ccc(I)cc1F)N1CC(O)([C@@H]2CCCCN2)C1 + CCn1c(-c2cccnc2C(C)OC)c2c3cc(ccc31)N1CCOC(CC(NC(=O)C(C(C)C)N(C)C(=O)C3(F)CCN(C(=O)C#CC(C)(C)N(C)C)CC3)C(=O)N3CCCC(N3)C(=O)OCC(C)(C)C2)C1	616215-338-R-J1-PDC complex spheroid viability	Condition met
CC(=O)OC12COC1CC(O)C1(C)C(=O)C(O)C3=C(C)C(OC(=O)C(O)C(NC(=O)OC(C)(C)C)c4ccccc4)CC(O)(C(OC(=O)c4ccccc4)C21)C3(C)C (stereo not drawn) + CCn1c(-c2cccnc2C(C)OC)c2c3cc(ccc31)N1CCOC(CC(NC(=O)C(C(C)C)N(C)C(=O)C3(F)CCN(C(=O)C#CC(C)(C)N(C)C)CC3)C(=O)N3CCCC(N3)C(=O)OCC(C)(C)C2)C1	616215-338-R-J1-PDC complex spheroid viability	Condition not met
NC1c2ccccc2OC12CCN(c1cnc3c(N4CCCc5ncccc54)n[nH]c3n1)CC2 (stereo not drawn) + CCn1c(-c2cc(N3CCN(C)CC3)cnc2C(C)OC)c2c3cc(ccc31)-c1csc(n1)CC(NC(=O)C1CC1C)C(=O)N1CCCC(N1)C(=O)OCC(C)(C)C2	616215-338-R-J1-PDC complex spheroid viability	Condition not met
CCC(CC)c1cc(NC2CCC(N)C2)n2nccc2n1 (stereo not drawn) + CCn1c(-c2cc(N3CCN(C)CC3)cnc2C(C)OC)c2c3cc(ccc31)-c1csc(n1)CC(NC(=O)C1CC1C)C(=O)N1CCCC(N1)C(=O)OCC(C)(C)C2	616215-338-R-J1-PDC complex spheroid viability	Condition not met
CC(C)NCC(C(=O)N1CCN(c2ncnc3c2C(C)CC3O)CC1)c1ccc(Cl)cc1 (stereo not drawn) + CCn1c(-c2cc(N3CCN(C)CC3)cnc2C(C)OC)c2c3cc(ccc31)-c1csc(n1)CC(NC(=O)C1CC1C)C(=O)N1CCCC(N1)C(=O)OCC(C)(C)C2	616215-338-R-J1-PDC complex spheroid viability	Condition not met
